Reported IC50 values for a set of molecules
target: DPP-IV (Homo sapiens); construct: Soluble human DPP-IV lacking the transmembrane anchor (Gly31-Pro766); Pre-Pro-alpha-mating factor leader (secretion fusion) (N, cleaved yes); made in house; assay: Continuous fluorimetric assay of inhibition of DPP-IV peptidase activity (Gly-Pro-AMC cleavage); assay type: biochemical; settings: 50 pM DPP-IV, 16 μM Gly-Pro-AMC, pH 7.4, 25° C.; values grouped in 2 classes; read-out: IC50 for inhibition of DPP-IV peptidase activity

Compound | IC50
N[C@@H](CC(=O)N1CCC(n2c(=O)[nH]c3ccccc32)CC1)Cc1ccccc1F | < 500 nM
N[C@@H](CC(=O)N1CCC(Cc2ccccc2)CC1)Cc1ccccc1F | 501 to 2000 nM
CS(=O)(=O)c1ccc(-c2noc(C3CCN(C(=O)C[C@H](N)Cc4ccccc4F)CC3)n2)cc1 | < 500 nM
N[C@@H](CC(=O)N1CCC(N(C2CC2)S(=O)(=O)c2ccccc2)CC1)Cc1ccccc1F | < 500 nM
N[C@@H](CC(=O)N1CCC(n2nnc3ccccc32)CC1)Cc1ccccc1F | < 500 nM
N[C@@H](CC(=O)N1CCC(C(F)(F)F)CC1)Cc1ccccc1F | < 500 nM
N[C@@H](CC(=O)N1CCC(c2nnc(-c3ccccc3)o2)CC1)Cc1ccccc1F | < 500 nM
N[C@@H](CC(=O)N1CCC(Oc2ccccc2)CC1)Cc1ccccc1F | < 500 nM
N[C@@H](CC(=O)N1CCC(c2nc3ccccc3[nH]2)CC1)Cc1ccccc1F | < 500 nM
N[C@@H](CC(=O)N1CCC(c2ccccc2)CC1)Cc1ccccc1F | < 500 nM
N[C@@H](CC(=O)N1CCC(c2cccc(Cl)c2)CC1)Cc1ccccc1F | 501 to 2000 nM
COc1ccccc1C1CCN(C(=O)C[C@H](N)Cc2ccccc2F)CC1 | < 500 nM
N[C@@H](CC(=O)N1CCC(F)CC1)Cc1ccccc1F | 501 to 2000 nM
N[C@@H](CC(=O)N1CCC(n2c(=O)[nH]c3cc(Cl)ccc32)CC1)Cc1ccccc1F | < 500 nM
N[C@@H](CC(=O)N1CC(N2CCN(c3ccccn3)CC2)C1)Cc1ccccc1F | 501 to 2000 nM
N[C@@H](CC(=O)N1CCC(c2nc(-c3ccncc3)no2)CC1)Cc1ccccc1F | < 500 nM
Cc1ccc(S(=O)(=O)C2CCN(C(=O)C[C@H](N)Cc3ccccc3F)CC2)cc1 | < 500 nM

###

Reported pIC50 values for a set of compounds
target: DPP-IV (Homo sapiens, UniProt P27487); construct: Soluble human DPP-IV lacking the transmembrane anchor (Gly31-Pro766); Pre-Pro-alpha-mating factor leader (secretion fusion) (N, cleaved yes); made in house; test: Continuous fluorimetric assay of inhibition of DPP-IV peptidase activity (Gly-Pro-AMC cleavage); type: biochemical
Sequence (P27487 31-766): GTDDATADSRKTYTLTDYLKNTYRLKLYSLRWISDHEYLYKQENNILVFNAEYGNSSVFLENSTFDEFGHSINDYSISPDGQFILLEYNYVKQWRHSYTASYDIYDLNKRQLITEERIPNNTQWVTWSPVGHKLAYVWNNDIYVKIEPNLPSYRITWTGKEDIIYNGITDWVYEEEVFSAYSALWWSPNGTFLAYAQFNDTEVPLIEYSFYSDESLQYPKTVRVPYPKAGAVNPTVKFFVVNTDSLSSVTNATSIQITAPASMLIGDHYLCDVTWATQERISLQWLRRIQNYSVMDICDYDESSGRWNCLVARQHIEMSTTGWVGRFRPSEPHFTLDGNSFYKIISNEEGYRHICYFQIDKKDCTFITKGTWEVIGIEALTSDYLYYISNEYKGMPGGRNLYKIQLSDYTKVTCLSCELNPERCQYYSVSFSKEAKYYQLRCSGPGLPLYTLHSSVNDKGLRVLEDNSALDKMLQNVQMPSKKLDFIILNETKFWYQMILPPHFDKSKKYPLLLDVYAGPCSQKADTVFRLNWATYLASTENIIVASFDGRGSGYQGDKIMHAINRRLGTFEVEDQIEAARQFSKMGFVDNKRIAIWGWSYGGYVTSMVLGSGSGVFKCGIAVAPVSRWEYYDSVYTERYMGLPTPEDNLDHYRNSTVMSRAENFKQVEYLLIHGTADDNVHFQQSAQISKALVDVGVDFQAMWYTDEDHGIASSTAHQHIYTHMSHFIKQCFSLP
pIC50: −log10 of the molar value.

Compound | pIC50
N#CC1(c2ccccc2)CCN(C(=O)C[C@H](N)Cc2ccccc2F)CC1 [Example 5] | > 6.30
N[C@@H](CC(=O)N1CCC(N2C(=O)Cc3ccccc32)CC1)Cc1ccccc1F [Example 45] | > 6.30
